# Tested on: HT29 sg-Ctrl (RNF43 wildtype)
# Assay protocol: cell viability activity relative to DMSO (negative = inhibition); higher = more viable cells (less growth inhibition)
# Condition parameters: 5 µM; 96 h
Threshold-based label: cell viability activity under -80% gives Yes, cell viability activity not under -80% gives No.

{"Compound": "COC[C@H](C)NC1CCC(Nc2cc(-c3cccc(NCC4(C#N)CCOCC4)n3)c(Cl)cn2)CC1 (stereo partly drawn)", "Category label": "Yes"}
{"Compound": "CC(=O)N1CCN(CCOc2ccc(C3CCN(C4=Nn5c(nnc5C(F)(F)F)CC4)CC3)cc2)CC1", "Category label": "No"}
{"Compound": "CNC(=O)c1ccccc1Nc1nc(Nc2ccc(N3CCOCC3)cc2OC)ncc1Cl", "Category label": "No"}
{"Compound": "N#Cc1ccc(COC[C@H]2O[C@@H](n3c(NCc4ccc(Cl)c(Cl)c4)nc4c(N)ncnc43)[C@H](O)[C@@H]2O)cc1", "Category label": "No"}
{"Compound": "Cc1ccc2c(Br)cc(Br)c(OC(=O)c3ccccc3)c2n1", "Category label": "No"}
{"Compound": "N#Cc1cc2c(OCC(O)CN3CCN(C(c4ccccc4)c4ccccc4)CC3)cccc2[nH]1 (stereo not drawn)", "Category label": "No"}
{"Compound": "O=C(Nc1ccncc1)Nc1ccc(-c2nc(N3CCOCC3)nc(N3C4CCC3COC4)n2)cc1", "Category label": "No"}
{"Compound": "CN1CCN(S(=O)(=O)c2ccc(-c3cnc(N)c(C(=O)Nc4cccnc4)n3)cc2)CC1", "Category label": "No"}
{"Compound": "COc1ccc(CCCOC(Cn2ccnc2)c2ccc(OC)cc2)cc1 (stereo not drawn)", "Category label": "No"}
{"Compound": "COc1ccc(N(C)c2nc(C)nc3ccccc23)cc1", "Category label": "No"}
{"Compound": "CC(C)c1cc(CNc2nc(Nc3cc(C4CC4)[nH]n3)cc(N3CCN(C)CC3)n2)on1", "Category label": "Yes"}
{"Compound": "CCOc1ccc(Cc2nccc3cc(OCC)c(OCC)cc23)cc1OCC", "Category label": "No"}
{"Compound": "COC[C@H](NC(=O)c1cnc(C)s1)C(=O)N[C@@H](COC)C(=O)N[C@@H](Cc1ccccc1)C(=O)[C@@]1(C)CO1", "Category label": "Yes"}
{"Compound": "COc1ccc(/C=C\\c2cc(OC)c(OC)c(OC)c2)cc1O", "Category label": "No"}
{"Compound": "COc1ccc(-c2cc3nccn3c(Nc3ncccc3C(N)=O)n2)cc1OC", "Category label": "No"}
{"Compound": "Nc1ncnc2c1c(-c1cccc(OCc3ccccc3)c1)cn2C1CC(CN2CCCC2)C1 (stereo not drawn)", "Category label": "No"}
{"Compound": "CC(C)C[C@H](NC(=O)[C@H](Cc1ccccc1)NC(=O)c1cnccn1)B(O)O", "Category label": "Yes"}
{"Compound": "CC(=O)c1cc2c(o1)C(=O)c1ccccc1C2=O", "Category label": "Yes"}
{"Compound": "Cc1nc(-c2cn3c(n2)-c2ccc(-c4cnn(C(C)(C)C(N)=O)c4)cc2OCC3)n(C(C)C)n1", "Category label": "No"}
{"Compound": "c1ccc2c(CCNc3ccc(Nc4ccncc4)cc3)c[nH]c2c1", "Category label": "Yes"}
{"Compound": "C[C@@H](CN1CC(=O)NC(=O)C1)N1CC(=O)NC(=O)C1", "Category label": "No"}
{"Compound": "NC1(Cc2ccc(Cl)cc2)CCN(c2ncnc3[nH]ccc23)CC1", "Category label": "No"}
{"Compound": "OCCN1CCN(CCCN2c3ccccc3Sc3ccc(Cl)cc32)CC1", "Category label": "Yes"}
{"Compound": "CN(C)C(=S)SC(=S)N(C)C", "Category label": "No"}
{"Compound": "CC(C)(C)c1ccc(-c2nc3ccccc3[nH]2)cc1", "Category label": "No"}
{"Compound": "Cc1ccc(C(=O)Nc2ccc(Oc3cc4cnn(C)c4cc3-c3cn[nH]c3)c(F)c2)c(=O)n1-c1ccc(F)cc1", "Category label": "No"}
{"Compound": "Fc1ccc(-n2cc(CCCCN3CCC4(CC3)OCc3ccccc34)c3ccccc32)cc1", "Category label": "No"}
{"Compound": "CCCCCCCCCCCCCCCC[N+](C)(C)Cc1ccccc1", "Category label": "No"}
{"Compound": "COc1ccc(-c2cc3c(C)nc(N)nc3n([C@H]3CC[C@H](OCCO)CC3)c2=O)cn1", "Category label": "Yes"}
{"Compound": "CN(C)Cc1c(C(=O)NCCOc2ccc(C(=O)NO)cc2)oc2ccccc12", "Category label": "Yes"}
{"Compound": "O=C1NCN(c2ccccc2)C12CCN(CCCC(c1ccc(F)cc1)c1ccc(F)cc1)CC2", "Category label": "No"}
{"Compound": "CCOC(=O)CCNc1cc(N2CCc3ccccc3CC2)nc(-c2ccccn2)n1", "Category label": "No"}
{"Compound": "Cc1cc(NC(=O)NCCN2CCC(O)(Cc3ccccc3)CC2)c2ccccc2n1", "Category label": "No"}
{"Compound": "C[C@@H]1CC[C@@]2(NC1)O[C@H]1C[C@H]3[C@@H]4CC=C5C[C@@H](O[C@@H]6O[C@H](CO)[C@@H](O[C@@H]7O[C@@H](C)[C@H](O)[C@@H](O)[C@H]7O)[C@H](O)[C@H]6O[C@@H]6O[C@@H](C)[C@H](O)[C@@H](O)[C@H]6O)CC[C@]5(C)[C@H]4CC[C@]3(C)[C@H]1[C@@H]2C", "Category label": "Yes"}
{"Compound": "C[C@@H](Oc1ccc2[nH]nc(/C=C/c3cnn(CCO)c3)c2c1)c1c(Cl)cncc1Cl", "Category label": "Yes"}
{"Compound": "CCN(CC)CCN(Cc1ccc(-c2ccc(C(F)(F)F)cc2)cc1)C(=O)Cn1c(SCc2ccc(F)cc2)nc(=O)c2c1CCC2", "Category label": "Yes"}
